Target: potassium channels (Cavia porcellus, UniProt A0A286XYR9)
Sequence (A0A286XYR9 1-1546): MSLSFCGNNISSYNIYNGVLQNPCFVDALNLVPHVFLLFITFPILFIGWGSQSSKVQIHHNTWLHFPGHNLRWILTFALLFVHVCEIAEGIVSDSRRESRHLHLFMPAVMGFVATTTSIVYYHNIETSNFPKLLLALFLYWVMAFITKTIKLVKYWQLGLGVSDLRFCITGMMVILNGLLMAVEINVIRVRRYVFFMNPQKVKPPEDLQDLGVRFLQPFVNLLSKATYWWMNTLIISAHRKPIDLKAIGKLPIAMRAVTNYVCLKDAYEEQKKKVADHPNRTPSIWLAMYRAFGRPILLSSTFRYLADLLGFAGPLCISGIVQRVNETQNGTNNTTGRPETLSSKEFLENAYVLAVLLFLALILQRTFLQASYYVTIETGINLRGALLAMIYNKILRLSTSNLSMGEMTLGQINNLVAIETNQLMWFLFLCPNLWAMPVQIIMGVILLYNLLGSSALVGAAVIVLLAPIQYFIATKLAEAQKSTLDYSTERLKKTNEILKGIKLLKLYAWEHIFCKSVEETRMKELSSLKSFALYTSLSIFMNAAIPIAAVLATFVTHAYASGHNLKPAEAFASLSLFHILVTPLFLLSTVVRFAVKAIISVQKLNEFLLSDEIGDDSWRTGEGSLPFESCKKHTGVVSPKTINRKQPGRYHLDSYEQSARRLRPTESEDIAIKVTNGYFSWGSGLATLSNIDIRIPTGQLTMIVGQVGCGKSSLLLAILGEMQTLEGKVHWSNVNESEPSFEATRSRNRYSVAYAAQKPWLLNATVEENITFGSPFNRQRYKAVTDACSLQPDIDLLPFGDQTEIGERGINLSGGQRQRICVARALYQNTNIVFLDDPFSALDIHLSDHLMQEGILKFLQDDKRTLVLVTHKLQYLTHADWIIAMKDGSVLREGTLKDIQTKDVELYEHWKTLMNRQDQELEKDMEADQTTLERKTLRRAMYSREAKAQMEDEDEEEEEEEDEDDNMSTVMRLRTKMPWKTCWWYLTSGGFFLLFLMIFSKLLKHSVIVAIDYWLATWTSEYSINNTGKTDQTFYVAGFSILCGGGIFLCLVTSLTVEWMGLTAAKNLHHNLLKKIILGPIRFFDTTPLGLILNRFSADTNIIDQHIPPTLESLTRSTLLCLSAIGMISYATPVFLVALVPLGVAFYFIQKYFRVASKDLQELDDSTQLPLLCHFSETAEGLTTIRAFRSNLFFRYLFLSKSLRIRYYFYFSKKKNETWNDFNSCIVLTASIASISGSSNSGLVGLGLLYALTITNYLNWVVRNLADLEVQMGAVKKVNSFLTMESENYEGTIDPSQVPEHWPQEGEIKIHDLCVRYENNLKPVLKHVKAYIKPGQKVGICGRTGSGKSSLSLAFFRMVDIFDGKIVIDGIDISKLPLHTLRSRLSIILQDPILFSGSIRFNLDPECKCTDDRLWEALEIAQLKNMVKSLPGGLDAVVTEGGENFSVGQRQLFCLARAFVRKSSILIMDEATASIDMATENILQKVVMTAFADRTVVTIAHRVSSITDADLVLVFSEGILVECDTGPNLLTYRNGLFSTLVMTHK
Sequence (Q9JHJ9 whole entry partner): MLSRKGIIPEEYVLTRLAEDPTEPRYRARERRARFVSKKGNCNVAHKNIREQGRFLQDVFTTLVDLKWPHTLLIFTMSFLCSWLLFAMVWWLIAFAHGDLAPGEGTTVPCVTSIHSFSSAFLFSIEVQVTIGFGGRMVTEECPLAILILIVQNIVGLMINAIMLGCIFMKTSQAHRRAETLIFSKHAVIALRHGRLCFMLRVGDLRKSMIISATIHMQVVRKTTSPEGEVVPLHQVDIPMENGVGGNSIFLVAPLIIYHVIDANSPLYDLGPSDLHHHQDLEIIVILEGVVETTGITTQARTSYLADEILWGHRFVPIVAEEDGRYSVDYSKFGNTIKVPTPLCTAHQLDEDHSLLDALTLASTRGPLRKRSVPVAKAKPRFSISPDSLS
Assay: Membrane hyperpolarization (MHP) assay, DiBAC(4)3 FLIPR, primary cultured guinea-pig urinary bladder (GPB) cells
Conditions: membrane hyperpolarization in GPB cells; concentration that elicits 50% of the maximal response for the test sample
assay-metric: pEC50
Keep it numeric: pEC50 is minus log10 of the concentration in mol/L.

Quick one: pEC50 for O=C1CCCC2=C1C(c1ccc(Cl)c(Cl)c1)n1ncc(Br)c1N2 (stereo not shown) ?
7.48

Reference source for all entries: patent US6538000B1
